Sourced from paper PMC10397247

# measurement.target: T1, P6-AA-1HGe-T
# T1 chain: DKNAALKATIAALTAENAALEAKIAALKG
# assay.overview: two-hybrid library CCmax;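 note: natural log of median RNA to DNA barcode read ratio; higher means stronger binding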
# setup.conditions: mean of both orientations
endpoint: interaction score
Enter a number only.

Task: Quick one: interaction score for DENAALEAQIAALQAKNAALKAEIAALEG [P5-AA-1HGe-Q] ?
Result: 2.32

Task: # iterate: DENAALEASIAALSAKNAALKAEIAALEG [P5-AA-1HGe-S]
Result: 1.76

Task: # iterate: DENAALEAHIAALHAKNAALKAEIAALEG [P5-AA-1HGe-H]
Result: 1.88

Task: # iterate: DENAALEAWIAALWAKNAALKAEIAALEG [P5-AA-1HGe-W]
Result: 2.11

Task: # iterate: DENAALEAEIAALEAKNAALKAEIAALEG [O5-AA]
Result: 2.21

Task: # iterate: DENAALEATIAALTAKNAALKAEIAALEG [P5-AA-1HGe-T]
Result: 2.05

Task: # iterate: DENAALEAYIAALYAKNAALKAEIAALEG [P5-AA-1HGe-Y]
Result: 2.24

Task: # iterate: DENAALEAKIAALKAKNAALKAEIAALEG [4H1401-AA]
Result: 2.05

Task: # iterate: DENAALEAAIAALAAKNAALKAEIAALEG [P5-AA-1HGe-A]
Result: 2.02

Task: # iterate: DENAALEADIAALDAKNAALKAEIAALEG [P5-AA-1HGe-D]
Result: 1.14

Task: # iterate: DENAALEARIAALRAKNAALKAEIAALEG [P5-AA-1HGe-R]
Result: 1.66

Task: # iterate: DENAALEAMIAALMAKNAALKAEIAALEG [P5-AA-1HGe-M]
Result: 2.3
